# Test system: Italian ryegrass (Lolium multiflorum)
# assay procedure: Test E greenhouse herbicide test, pre- and postemergence
# Type: in vivo
# measurement parameters: 62 g ai/ha, Preemergence; scale 0 to 100 (0 no effect, 100 complete control)
readout label: Plant response rating, Ryegrass, Italian
Answers are plain numbers.

• Cc1ccc2ccccc2c1-c1c(OC(=O)OC(C)C)c(C)nn(C)c1=O [Compound 72] = 90
• Cc1ccc2sc(C)c(-c3c(OC(=O)OC(C)C)c(C)nn(C)c3=O)c2c1 [Compound 66] = 90
• CCc1sc2ccc(C)cc2c1-c1c(O)c(C)nn(C)c1=O [Compound 47] = 30
• COC(=O)Oc1c(C)nn(C)c(=O)c1-c1c(C)sc2ccc(C)cc12 [Compound 80] = 98

For reference, reported Plant response rating, Ryegrass, Italian for CCc1sc2c(C)cc(C)cc2c1-c1c(O)c(C)nn(C)c1=O [Compound 57] stands at 35

These measurements were taken from patent US10597388B2.
